Below: a set of entries, each annotated with reported IC50.
- systemTested: ZAP-70 (Homo sapiens, UniProt P43403)
- Construct: endogenous in cells; host or cells: cell lysate
- Sequence (P43403 1-619): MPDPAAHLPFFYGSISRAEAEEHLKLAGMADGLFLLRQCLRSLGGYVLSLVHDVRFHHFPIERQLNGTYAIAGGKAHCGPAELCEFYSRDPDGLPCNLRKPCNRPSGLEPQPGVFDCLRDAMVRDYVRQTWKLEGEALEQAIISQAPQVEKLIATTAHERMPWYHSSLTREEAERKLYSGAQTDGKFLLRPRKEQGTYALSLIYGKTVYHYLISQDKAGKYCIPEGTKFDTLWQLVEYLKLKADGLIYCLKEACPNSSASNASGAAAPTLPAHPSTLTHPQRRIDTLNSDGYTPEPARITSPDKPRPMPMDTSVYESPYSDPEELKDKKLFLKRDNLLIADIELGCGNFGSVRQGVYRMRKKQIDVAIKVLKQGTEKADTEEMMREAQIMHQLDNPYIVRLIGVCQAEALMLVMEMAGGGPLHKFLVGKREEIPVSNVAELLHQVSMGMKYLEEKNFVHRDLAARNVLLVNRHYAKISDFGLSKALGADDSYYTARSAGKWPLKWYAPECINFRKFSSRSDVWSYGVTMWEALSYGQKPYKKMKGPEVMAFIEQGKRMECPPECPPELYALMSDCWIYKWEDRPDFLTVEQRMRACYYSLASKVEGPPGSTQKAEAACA
- experimentalProtocol: ZAP-70 kinobeads assay
- Format: binding
- conditionLabel: competition with immobilized aminopyrido-pyrimidine ligand 24 in cell lysate; ZAP-70 detected by dot blot
Structures can show the parent of a compound that is named as a salt.
measurementLabel: IC50

INSERT INTO results (compound, systemtested, measurementlabel, valuereported) VALUES
  ('CCN(c1ccccc1Nc1nc(Nc2ccc(OCCN3CCOCC3)cc2)ncc1F)S(C)(=O)=O', 'ZAP-70 (Homo sapiens, UniProt P43403)', 'IC50', '0.1 to 1 µM'),
  ('COc1ccc(Nc2nc(Nc3cc(OC)c(OC)c(OC)c3)ncc2Cl)c(NS(C)(=O)=O)c1F', 'ZAP-70 (Homo sapiens, UniProt P43403)', 'IC50', '0.1 to 1 µM'),
  ('COc1cc(Nc2ncc(F)c(Nc3cc(C)cc(C)c3NS(C)(=O)=O)n2)cc(OC)c1OC', 'ZAP-70 (Homo sapiens, UniProt P43403)', 'IC50', '1 to 10 µM'),
  ('CS(=O)(=O)Nc1ccccc1Nc1nc(Nc2ccc(OCCCN3CCCCC3)cc2)ncc1F', 'ZAP-70 (Homo sapiens, UniProt P43403)', 'IC50', '0.1 to 1 µM'),
  ('CS(=O)(=O)Nc1ccccc1Nc1nc(Nc2cccc(C(=O)N3CCCC3)c2)ncc1F', 'ZAP-70 (Homo sapiens, UniProt P43403)', 'IC50', '0.1 to 1 µM'),
  ('COc1cc(Nc2ncc(F)c(Nc3ccccc3NS(C)(=O)=O)n2)ccc1Cl', 'ZAP-70 (Homo sapiens, UniProt P43403)', 'IC50', '1 to 10 µM'),
  ('Cc1cc(C)cc(Nc2ncc(F)c(Nc3ccccc3N(C)S(C)(=O)=O)n2)c1', 'ZAP-70 (Homo sapiens, UniProt P43403)', 'IC50', '1 to 10 µM'),
  ('CS(=O)(=O)Nc1ccccc1Nc1nc(Nc2cccc(-c3nnn[nH]3)c2)ncc1F', 'ZAP-70 (Homo sapiens, UniProt P43403)', 'IC50', '1 to 10 µM'),
  ('CS(=O)(=O)Nc1ccccc1Nc1nc(Nc2cccc(O)c2)ncc1F', 'ZAP-70 (Homo sapiens, UniProt P43403)', 'IC50', '0.1 to 1 µM'),
  ('Cc1n[nH]c(-c2ccc(Nc3ncc(F)c(Nc4ccccc4NS(C)(=O)=O)n3)cc2)n1', 'ZAP-70 (Homo sapiens, UniProt P43403)', 'IC50', '1 to 10 µM'),
  ('CN1CCCC(COc2cccc(Nc3ncc(F)c(Nc4ccccc4NS(C)(=O)=O)n3)c2)C1 (stereo not drawn)', 'ZAP-70 (Homo sapiens, UniProt P43403)', 'IC50', '< 0.1 µM'),
  ('COc1cc(Nc2ncc(F)c(Nc3ccccc3NS(=O)(=O)c3ccccc3)n2)cc(OC)c1OC', 'ZAP-70 (Homo sapiens, UniProt P43403)', 'IC50', '1 to 10 µM'),
  ('COc1ccc(Nc2ncc(Cl)c(Nc3ccccc3NS(C)(=O)=O)n2)cc1 [Example 139, hydrochloride]', 'ZAP-70 (Homo sapiens, UniProt P43403)', 'IC50', '0.1 to 1 µM'),
  ('CCN(c1ccccc1Nc1nc(Nc2cc(C)cc(C)c2)ncc1F)S(C)(=O)=O', 'ZAP-70 (Homo sapiens, UniProt P43403)', 'IC50', '1 to 10 µM'),
  ('COc1ccc(Nc2nc(Nc3ccc(OC)c(OC)c3)ncc2Br)c(NS(C)(=O)=O)c1', 'ZAP-70 (Homo sapiens, UniProt P43403)', 'IC50', '< 0.1 µM'),
  ('COc1ccc(Nc2ncc(F)c(Nc3ccccc3NS(C)(=O)=O)n2)cc1Cl', 'ZAP-70 (Homo sapiens, UniProt P43403)', 'IC50', '1 to 10 µM'),
  ('CS(=O)(=O)Nc1ccccc1Nc1nc(Nc2cccc(OCC(=O)O)c2)ncc1F [Example 99, hydrochloride]', 'ZAP-70 (Homo sapiens, UniProt P43403)', 'IC50', '0.1 to 1 µM'),
  ('Cc1nnnn1-c1ccc(Nc2ncc(F)c(Nc3ccccc3NS(C)(=O)=O)n2)cc1', 'ZAP-70 (Homo sapiens, UniProt P43403)', 'IC50', '0.1 to 1 µM'),
  ('CS(=O)(=O)Nc1ccccc1Nc1nc(Nc2ccc(-n3cnnn3)cc2)ncc1F', 'ZAP-70 (Homo sapiens, UniProt P43403)', 'IC50', '1 to 10 µM'),
  ('COc1cc(Nc2ncc(F)c(Nc3ccc4c(c3NS(C)(=O)=O)OCCO4)n2)cc(OC)c1OC', 'ZAP-70 (Homo sapiens, UniProt P43403)', 'IC50', '< 0.1 µM'),
  ('CN1CCCC(COc2cccc(Nc3ncc(Cl)c(Nc4ccccc4NS(C)(=O)=O)n3)c2)C1 (stereo not drawn)', 'ZAP-70 (Homo sapiens, UniProt P43403)', 'IC50', '< 0.1 µM'),
  ('COc1cc(Nc2ncc(F)c(Nc3cccc(C)c3NS(C)(=O)=O)n2)cc(OC)c1OCCN1CCCCC1', 'ZAP-70 (Homo sapiens, UniProt P43403)', 'IC50', '< 0.1 µM'),
  ('CCN(c1ccccc1Nc1nc(Nc2cc(OC)c(OC)c(OC)c2)ncc1F)S(C)(=O)=O', 'ZAP-70 (Homo sapiens, UniProt P43403)', 'IC50', '0.1 to 1 µM'),
  ('CCc1cccc(Nc2nc(Nc3cc(OC)c(OC)c(OC)c3)ncc2F)c1NS(C)(=O)=O', 'ZAP-70 (Homo sapiens, UniProt P43403)', 'IC50', '< 0.1 µM'),
  ('CS(=O)(=O)Nc1ccccc1Nc1nc(Nc2ccccc2)ncc1F', 'ZAP-70 (Homo sapiens, UniProt P43403)', 'IC50', '1 to 10 µM'),
  ('CN(C)C(=O)c1cccc(Nc2ncc(F)c(Nc3ccccc3NS(C)(=O)=O)n2)c1', 'ZAP-70 (Homo sapiens, UniProt P43403)', 'IC50', '0.1 to 1 µM'),
  ('CS(=O)(=O)Nc1ccccc1Nc1nc(Nc2ccc(-n3cnnn3)cc2)ncc1Cl', 'ZAP-70 (Homo sapiens, UniProt P43403)', 'IC50', '0.1 to 1 µM'),
  ('COc1cc(Nc2ncc(F)c(Nc3ccc(OC(C)C)cc3NS(C)(=O)=O)n2)cc(OC)c1OC', 'ZAP-70 (Homo sapiens, UniProt P43403)', 'IC50', '< 0.1 µM'),
  ('COc1cc(Nc2ncc(F)c(Nc3cccc(NS(=O)(=O)CC(F)(F)F)c3)n2)cc(OC)c1OC', 'ZAP-70 (Homo sapiens, UniProt P43403)', 'IC50', '1 to 10 µM'),
  ('Cc1cccc(Nc2nc(Nc3cccc(OCCN4CCCCC4)c3)ncc2Cl)c1NS(C)(=O)=O', 'ZAP-70 (Homo sapiens, UniProt P43403)', 'IC50', '< 0.1 µM'),
  ('CS(=O)(=O)Nc1ccccc1Nc1nc(Nc2cccc(OCCN3CCCCC3)c2)ncc1Cl', 'ZAP-70 (Homo sapiens, UniProt P43403)', 'IC50', '< 0.1 µM'),
  ('CNCCS(=O)(=O)Nc1ccccc1Nc1nc(Nc2cc(OC)c(OC)c(OC)c2)ncc1F', 'ZAP-70 (Homo sapiens, UniProt P43403)', 'IC50', '1 to 10 µM'),
  ('Cc1nc(-c2cccc(Nc3ncc(F)c(Nc4ccccc4NS(C)(=O)=O)n3)c2)no1', 'ZAP-70 (Homo sapiens, UniProt P43403)', 'IC50', '1 to 10 µM');
